Test system: Staphylococcus aureus
Assay: Antimicrobial activity against Staphylococcus aureus assessed as reduction of microbial growth
Format: functional
Active and inactive are the calls of the source. The rule behind the calls is not given here.
observation.type: MIC

>>> recorded_measurement("H-FLHSAKKFGKAFVGEIMNS-OH")
"inactive"
>>> recorded_measurement("H-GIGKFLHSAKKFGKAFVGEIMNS-NH2")
"> 256 µg/mL"
>>> recorded_measurement("H-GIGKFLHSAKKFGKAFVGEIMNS-OH [MAGAININ 2]")
"inactive"
>>> recorded_measurement("H-KFLHSAKKFGKAFVGEIMNS-OH")
"inactive"
